Below, each entry is listed alongside its reported pIC50.
Biological target: 1-deoxy-D-xylulose 5-phosphate reductoisomerase (Escherichia coli K-12, UniProt P45568)
Sequence (P45568 whole entry): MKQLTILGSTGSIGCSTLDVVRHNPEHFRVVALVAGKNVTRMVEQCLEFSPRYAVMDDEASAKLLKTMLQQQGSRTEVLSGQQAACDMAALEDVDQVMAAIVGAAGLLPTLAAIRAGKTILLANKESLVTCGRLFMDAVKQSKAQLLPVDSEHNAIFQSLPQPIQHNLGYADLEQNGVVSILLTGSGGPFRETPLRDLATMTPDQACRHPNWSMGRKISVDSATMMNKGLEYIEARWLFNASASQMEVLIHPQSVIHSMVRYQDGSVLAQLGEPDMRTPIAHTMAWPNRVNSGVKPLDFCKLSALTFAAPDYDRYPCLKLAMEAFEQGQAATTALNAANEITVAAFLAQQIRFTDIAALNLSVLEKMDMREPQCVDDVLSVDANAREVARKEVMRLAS
Assay: Inhibition of His-tagged Escherichia coli DXR pre-incubated for 2 mins before reaction initiation in presence of 160 uM NADPH in absence of 0.01% Triton X100
pIC50: −log10 of the molar value.
recorded-metric: pIC50

{"structure-smiles-string": "O=C(CN1C(=O)/C(=C/c2ccc(O)c(O)c2)SC1=S)NO", "readout-value": 5.42}
{"structure-smiles-string": "O=C(O)CN1C(=O)/C(=C/c2ccc(O)c(O)c2)SC1=S", "readout-value": 5.51}
{"structure-smiles-string": "Cc1ccc(Oc2ccc(NC(=O)CN3C(=O)/C(=C/c4cccc(O)c4O)SC3=S)cc2)cc1", "readout-value": 5.44}
{"structure-smiles-string": "O=C(CN1C(=O)/C(=C/c2ccc(O)cc2O)SC1=S)Nc1ccc(Oc2ccc(Cl)cc2)cc1", "readout-value": 4.24}
{"structure-smiles-string": "O=C(CN1C(=O)/C(=C/c2cccc(O)c2O)SC1=S)Nc1ccc(Oc2ccc(Cl)cc2)cc1", "readout-value": 5.48}
{"structure-smiles-string": "Cc1ccc(Oc2ccc(NC(=O)CN3C(=O)/C(=C/c4ccc(O)c(O)c4)SC3=S)cc2)cc1", "readout-value": 5.39}
{"structure-smiles-string": "O=C(CN1C(=O)/C(=C/c2ccc(O)c(O)c2)SC1=S)Nc1ccc(Oc2ccc(Cl)cc2)cc1", "readout-value": 5.49}
